The reported measurements were obtained from patent US20080261994A1.

# Assay Target: MMP-1 (Homo sapiens, UniProt P03956)
# Sequence (P03956 100-469, species assumed): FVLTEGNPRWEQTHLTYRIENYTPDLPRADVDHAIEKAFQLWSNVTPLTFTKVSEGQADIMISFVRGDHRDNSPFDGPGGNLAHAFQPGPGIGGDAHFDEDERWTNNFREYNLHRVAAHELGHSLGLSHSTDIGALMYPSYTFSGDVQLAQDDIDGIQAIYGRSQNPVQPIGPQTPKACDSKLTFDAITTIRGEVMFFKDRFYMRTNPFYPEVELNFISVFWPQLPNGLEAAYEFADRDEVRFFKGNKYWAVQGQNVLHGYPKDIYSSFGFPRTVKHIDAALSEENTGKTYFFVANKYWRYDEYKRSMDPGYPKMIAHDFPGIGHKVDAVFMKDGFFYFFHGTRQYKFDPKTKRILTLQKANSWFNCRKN
# Procedure Text: MMP-1 inhibitory action (Type I collagen Activity Measurement kit, FITC-labeled collagen type I)
# Assay type: biochemical
# Measurement Parameters: MMP-1 inhibitory action, FITC-labeled collagen type I, 37° C. for 3 hr; read-out: IC50 MMP1 (Experimental Example 2)
Parameter Measured: IC50

Identify the measured IC50 of `CC(C)(C)C#Cc1ccc(S(=O)(=O)N[C@@]2(C(=O)O)C[C@@H]2c2ccccc2)s1` for MMP-1 (Homo sapiens, UniProt P03956).
≥ 10 µM

Let us now turn to CC(C)(CO)NC(=O)c1ccccc1C1CC1(NS(=O)(=O)c1ccc(-c2ccc(Cl)cc2)s1)C(=O)O (stereo not drawn)
≥ 10 µM

Let us now turn to CC(C)(C)OC(=O)Nc1ccccc1C1CC1(NS(=O)(=O)c1ccc(-c2ccc(Cl)cc2)s1)C(=O)O (stereo not drawn)
≥ 10 µM

Let us now turn to CC(C)NC(=O)c1ccc(S(=O)(=O)NC2(C(=O)O)CC2c2ccccc2)s1 (stereo not drawn)
≥ 10 µM

Let us now turn to CN1CCN(C(=O)Cc2cccc(C3CC3(NS(=O)(=O)c3ccc(-c4ccc(Cl)cc4)s3)C(=O)O)c2)CC1 (stereo not drawn)
≥ 10 µM

====

# Assay Target: Recombinant Human MMP-13 (Homo sapiens, UniProt P45452)
# Construct: purchased R&D systems 511-MM
# Procedure Text: MMP-13 inhibitory activity (MMP-13 specific fluorescent substrate with quencher)
# Format: biochemical
# Measurement Parameters: Experimental Example 3; read-out: IC50 MMP13
Parameter Measured: IC50

Known results for molecules:
Molecule: O=C(NO)C1(NS(=O)(=O)c2ccc(-c3ccc(Cl)cc3)s2)C2CCCc3ccccc3C21 (stereo not shown)
Assay Value: < 1000 nM
//
Molecule: CC1[C@H](c2ccccc2)[C@]1(NS(=O)(=O)c1ccc(-n2cc(I)cn2)s1)C(=O)O (stereo partly shown)
Assay Value: < 100 nM
//
Molecule: O=C(O)C1(NS(=O)(=O)c2ccc(-c3ccc(Cl)cc3)s2)C2Cc3ccccc3C21 (stereo not shown)
Assay Value: < 1000 nM
//
Molecule: CC1[C@H](c2ccccc2)[C@]1(NS(=O)(=O)N1CCCN(c2cccc(Cl)c2)CC1)C(=O)O (stereo partly shown)
Assay Value: ≥ 1000 nM
//
Molecule: O=C(CO)NCC1(c2ccccc2)CC1(NS(=O)(=O)c1ccc(-c2ccc(Cl)cc2)s1)C(=O)O (stereo not shown)
Assay Value: < 1000 nM

Endpoint output: IC50 of CC1[C@H](c2ccccc2)[C@]1(NS(=O)(=O)c1ccc(-c2nc3ccccc3s2)s1)C(=O)O (stereo partly shown) . Value?
< 100 nM

Let us now turn to O=C(O)C1(NS(=O)(=O)c2ccc(-c3ccc(Cl)cc3)s2)CC1(Cn1ccnc1)c1ccccc1 (stereo not shown)
< 1000 nM

====

# Assay Target: MMP-1 (Homo sapiens)
# Procedure Text: MMP-1 inhibitory action (Type I collagen Activity Measurement kit, FITC-labeled collagen type I)
# Type: biochemical
# Measurement Parameters: Experimental Example 2; read-out: IC50 MMP1
pIC50: −log10 of the molar value.
Parameter Measured: pIC50

Known results for compounds:
Compound: COCCN(C)C(=O)c1ccc(C2(CCCOC(C)=O)CC2(NS(=O)(=O)c2ccc(-c3cc(C(F)(F)F)on3)s2)C(=O)O)cc1 (stereo not shown)
Assay Target: MMP-1 (Homo sapiens)
Assay Value: ≤ 5.00
--
Compound: COCC1(c2ccccc2)CC1(NS(=O)(=O)c1ccc(-c2ccc(Cl)cc2)s1)C(=O)O (stereo not shown)
Assay Target: MMP-1 (Homo sapiens)
Assay Value: ≤ 6.00
--
Compound: CC(C)OC(=O)N1CCN(S(=O)(=O)N[C@@]2(C(=O)O)C[C@@H]2c2ccccc2)CC1
Assay Target: MMP-1 (Homo sapiens)
Assay Value: ≤ 6.00
--
Compound: O=C(Nc1ccc(S(=O)(=O)N[C@@]2(C(=O)O)C[C@@H]2c2ccccc2)cc1)c1ccccc1
Assay Target: MMP-1 (Homo sapiens)
Assay Value: ≤ 5.00
--
Compound: O=C(OCC1(c2ccccc2)CC1(NS(=O)(=O)c1ccc(-c2cc(C(F)(F)F)on2)s1)C(=O)O)N1CCCCC1 (stereo not shown)
Assay Target: MMP-1 (Homo sapiens)
Assay Value: > 6.00
--
Compound: CC1[C@H](c2ccccc2)[C@]1(NS(=O)(=O)N1CCN(c2ccc(Br)cc2)CC1)C(=O)O (stereo partly shown)
Assay Target: MMP-1 (Homo sapiens)
Assay Value: ≤ 5.00

Here's the next entry for you.
Endpoint output: pIC50 of `CNC(=O)CCc1ccc([C@H]2C[C@@]2(NS(=O)(=O)c2ccc(-c3cc(C(F)(F)F)on3)s2)C(=O)O)cc1` . Value?
> 6.00

====

# Assay Target: aggrecanase-1 (Homo sapiens, UniProt O75173)
# Sequence (O75173 213-837): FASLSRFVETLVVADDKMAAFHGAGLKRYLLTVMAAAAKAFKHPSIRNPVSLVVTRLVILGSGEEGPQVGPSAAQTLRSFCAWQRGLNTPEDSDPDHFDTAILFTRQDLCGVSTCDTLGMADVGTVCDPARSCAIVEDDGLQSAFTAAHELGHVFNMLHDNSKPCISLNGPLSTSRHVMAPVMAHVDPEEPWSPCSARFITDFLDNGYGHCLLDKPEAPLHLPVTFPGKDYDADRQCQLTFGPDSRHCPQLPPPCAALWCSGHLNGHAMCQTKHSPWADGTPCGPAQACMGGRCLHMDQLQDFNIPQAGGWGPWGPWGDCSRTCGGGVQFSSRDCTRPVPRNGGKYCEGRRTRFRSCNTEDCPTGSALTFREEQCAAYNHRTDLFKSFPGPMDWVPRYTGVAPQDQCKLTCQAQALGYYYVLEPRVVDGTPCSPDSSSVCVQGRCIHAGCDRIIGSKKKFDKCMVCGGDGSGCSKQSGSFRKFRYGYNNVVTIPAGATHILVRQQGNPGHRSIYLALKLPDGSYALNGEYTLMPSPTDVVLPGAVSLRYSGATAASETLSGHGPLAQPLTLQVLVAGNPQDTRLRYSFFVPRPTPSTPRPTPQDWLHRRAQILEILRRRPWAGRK
# Procedure Text: Aggrecanase-1 inhibitory action (Particle Assay, GAG release from aggrecan-containing polyacrylamide particles)
# Assay type: biochemical
# Measurement Parameters: Experimental Example 1; read-out: IC50 AG1
# Protocol: Particle Assay was used for determination of aggrecanase activity. The enzyme and substrate were diluted with Tris-HCl buffer, and test compounds were diluted with dimethyl sulfoxide (DMSO). […] After incubation, the supernatant was transferred to another plate, and mixed with 1,9-dimethylmethylene blue. The absorbence at 595 nm was measured to quantify the amount of glycosaminoglycan (GAG) released in the reaction supernatant. […]
Measured IC50 values are reported for all entries that follow.

Compound: CC(=O)NCCCC1(c2ccccc2)CC1(NS(=O)(=O)c1ccc(-c2ccc(Cl)cc2)s1)C(=O)O (stereo not shown)
Assay Target: aggrecanase-1 (Homo sapiens, UniProt O75173)
Parameter Measured: IC50
Assay Value: < 100 nM
//
Compound: C[C@]1(c2ccccc2)C[C@@]1(NS(=O)(=O)c1ccc(-c2cc(O)c(F)c(F)c2)s1)C(=O)O
Assay Target: aggrecanase-1 (Homo sapiens, UniProt O75173)
Parameter Measured: IC50
Assay Value: < 1000 nM

Endpoint output: IC50 of CC1(c2cccnc2)CC1(NS(=O)(=O)c1ccc(-c2cc(C(F)(F)F)on2)s1)C(=O)O (stereo not shown) . Value?
< 1000 nM

Let us now turn to O=C(NO)C1(NS(=O)(=O)c2ccc(-c3cc(C(F)(F)F)on3)s2)C2CCc3ccccc3C21 (stereo not shown)
< 1000 nM

Let us now turn to CC(C)OCCNC(=O)OCC1(c2ccccc2)CC1(NS(=O)(=O)c1ccc(-c2cc(C(F)(F)F)on2)s1)C(=O)O (stereo not shown)
< 1000 nM

Let us now turn to COCCCC1(c2ccccc2)CC1(NS(=O)(=O)c1ccc(-c2ccc(Cl)cc2)s1)C(=O)O (stereo not shown)
< 100 nM

Let us now turn to `CNC(=O)Cc1ccc([C@@H]2C[C@]2(NS(=O)(=O)c2ccc(-c3cc(C(F)(F)F)on3)s2)C(=O)O)cc1`
< 100 nM

Let us now turn to CC1[C@H](c2ccccc2)[C@]1(NS(=O)(=O)N1CCN(c2nc3ccccc3o2)CC1)C(=O)O (stereo partly shown)
≥ 1000 nM

Let us now turn to `Cc1cnn(-c2ccc(S(=O)(=O)N[C@@]3(C(=O)O)C[C@@H]3c3ccccc3)cn2)c1`
≥ 1000 nM

Let us now turn to CC1[C@H](c2ccccc2)[C@]1(NS(=O)(=O)c1ccc(-c2cc(C(F)(F)F)on2)o1)C(=O)O (stereo partly shown)
≥ 1000 nM

Let us now turn to CC1[C@H](c2ccccc2)[C@]1(NS(=O)(=O)N1CCC(OCc2cccc(Cl)c2)C1)C(=O)O (stereo partly shown)
≥ 1000 nM

Let us now turn to CC1[C@H](c2ccccc2)[C@]1(NS(=O)(=O)c1ccc(-c2cc(N(C)C)on2)s1)C(=O)O (stereo partly shown)
< 100 nM

Let us now turn to CC1[C@H](c2ccccc2)[C@]1(NS(=O)(=O)N1CCN(c2ccc(C(F)(F)F)cc2)CC1)C(=O)O (stereo partly shown)
< 1000 nM

Let us now turn to O=C(O)COCC1(c2ccccc2)CC1(NS(=O)(=O)c1ccc(-c2ccc(Cl)cc2)s1)C(=O)O (stereo not shown)
< 100 nM
